Tested on: 435261-313-R-J1-PDC tumor spheroid viability;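 note: spheroids exposed to compounds for 7 days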
Test: Anticancer human tumor 435261-313-R-J1-PDC patient-derived colon adenocarcinoma cell line growth inhibition [PI3K]
Details: second compound 0.00316 µM; first compound 0.1 µM; active compounds read low; spheroids with HUVEC and MSC
Source text: Combinatorial screen of targeted agents with the PI3K inhibitors inavolisib, alpelisib, duvelisib, and copanlisib in multi-cell type tumor spheroids A high-throughput screen of multi-cell type tumor spheroids was designed to identify active combinations of targeted small molecules and PI3K pathway inhibitors. […] Compounds. […] If the clinical Cmax for an agent had not been determined, the highest concentration tested was 10 microM. […]
ENDPOINT: viability, T/C

# batch size: 2; output viability, T/C per entry
1. CCN1CCN(Cc2ccc(Nc3ncc(F)c(-c4cc(F)c5nc(C)n(C(C)C)c5c4)n3)nc2)CC1 + COc1c(OCCCN2CCOCC2)ccc2c3n(c(=NC(=O)c4cnc(N)nc4)nc12)CCN3
2. CNC(=O)c1ccc(N2C(=S)N(c3ccc(C#N)c(C(F)(F)F)c3)C(=O)C2(C)C)cc1F + CC(Nc1ccc2c(c1)OCCn1cc(N3C(=O)OCC3C(F)F)nc1-2)C(N)=O

1: 35.8%; 2: 95.5%
